# System: MDA-MB-231 breast
# test_protocol: NCI-60 one-dose screen, 48 h
# applied_conditions: 10 µM unless noted
This is part of a sample that, as a whole, favours compounds with a hit. Of some 83,000 tested, about 20% had one in any assay. Activity calls are given as the source filed them. How the source made its calls: active means growth percent below 10; inactive means the rest.
// one of yes (active), no (inactive), no free text

Study these solved cases before continuing.
# compound, assigned_label
data = [
    ("CCCCCCCCNc1ncnc2c1ncn2Cc1nnc2c3ccccc3c(Cl)nn12", "no"),
    ("CC1(C)CC(=O)C2=C(C1)OC(C(=O)c1ccccc1)C2c1cccc(Oc2ccccc2)c1 (configuration not stated)", "no"),
]

Query :: Test call, this compound: `O=c1c(/C=C/c2c(O)ccc3ccccc23)nnc2sc(-c3cccc([N+](=O)[O-])c3)nn12`
Result :: no

Query :: What did the test return for `CCN1CCN(C(=O)[C@]23CC[C@@H](C)[C@H](C)[C@@H]2C2=CC[C@@H]4[C@@]5(C)C/C(=C/c6ccncc6)C(=O)C(C)(C)[C@@H]5CC[C@@]4(C)[C@]2(C)CC3)CC1` ?
Result :: yes

Query :: Hey, what did the test say about CC(Cc1cccc2ccccc12)C(N)=O (configuration not stated) ?
Result :: no

Query :: Given `Cc1c2cnccc2c(C)c2c1c1cc(C(=O)O)ccc1n2C` , state the outcome it received in this test.
Result :: yes

Query :: # outcome recorded in this test, key = `COc1cc(-c2ccc(-c3ccc(C(=N)N)s3)s2)cc(OC)c1OC`
Result :: no

* * *

Quick reference for growth among some compounds
# System: A498 renal
# test_protocol: NCI-60 one-dose screen, 48 h (100 = growth as untreated, 0 = no growth, -100 = all killed)
# applied_conditions: 10 µM unless noted
Compounds without any hit were thinned out: in the full panel of roughly 83,000, 20% have a hit. Calls of active or inactive are those of the source. The calls were made as follows: active = growth percent below 10; inactive = the rest.

Consider the worked cases shown below.
# compound, obs_value
measured = [
    ("Nc1ccc(Cl)c2c(=O)c3ccccc3[nH]c12", "69.3% (inactive)"),
    ("Oc1cccc2c1NCCC2", "19.6% (inactive)"),
]

// growth value for `CCOc1ccc(-c2cc(C3(S(=O)(=O)c4ccc(C)cc4)CC=CC3)on2)cc1` : 72.1% (inactive)

Entry `CNC(=O)c1cc(Oc2ccc3nc(NC(=O)NC(C)C)sc3c2)ccn1` , growth reported as 51.4% (inactive)

Sure, the documented growth for COC1CC(O)C2=C(CC3C(/C(C)=C\CC=C(C)C)CCC3(C)O2)C1=O (stereo not drawn) is 103% (inactive)

Record `CN(C)c1ccc(/C=C/C2=[N+](C)c3ccccc3C2(C)C)cc1` . Reported growth: 66.6% (inactive)

Quick note, growth for `O=C1c2ccccc2C(=O)c2cc(Cn3c[n+](Cc4ccc5ccccc5c4)c4ccccc43)ccc21` landed at 77.8% (inactive)

Lab note: `C#Cc1ccc(NC(=O)Cc2ccc(/C=C/C(=O)c3nccn3C)cc2)cc1` gave growth of 105% (inactive)

Record `N=C(N)c1ccc(-c2ccc(-c3ccc(Cl)cc3Cl)s2)nc1` , field growth: 104% (inactive)

* * *

# Test system: NCI-H322M lung
# test_protocol: NCI-60 one-dose screen, 48 h (100 = growth as untreated, 0 = no growth, -100 = all killed)
# applied_conditions: 10 µM unless noted
The panel holds about 83,000 compounds, 20% with a hit somewhere; the sample as a whole holds those more often.
Classification by growth follows these ranges: b0 = under 70%, b1 = from 70% up to 90%, b2 = 90% and over

Query :: Please report the category associated with `Nc1n[nH]c2cccc(C#Cc3cccc(C(=O)Nc4ccc(Cl)c(C(F)(F)F)c4)c3)c12` , nothing else.
Result :: b1

* * *

Here the recorded growth is given for each entry.
# System: OVCAR-4 ovarian
# test_protocol: NCI-60 one-dose screen, 48 h (100 = growth as untreated, 0 = no growth, -100 = all killed)
# applied_conditions: 10 µM unless noted
This is part of a sample that, as a whole, favours compounds with a hit. Of some 83,000 tested, about 20% had one in any assay.
Field: numeric (%). Do not append units.

Look over these answered cases.
# molecule, attribute_measured, units, obs_value
records = [
    ("O=C(Oc1ccccc1)c1cc(O)c(O)c(O)c1", "growth", "%", 63.7),
    ("Nc1cc(-c2ccc(Cl)cc2)nn1-c1nc(-c2ccc(Br)cc2)cs1", "growth", "%", 103),
    ("C=CCOC(=O)C1=C(C)N(CC)C(=O)N(CC)C1c1c(Cl)n(C)c2ccccc12 (configuration not stated)", "growth", "%", 88.5),
]

Kindly consider the entry below.
The molecule `COC(=O)[C@@H](Cc1c[nH]c2ccccc12)NC[C@@H](O)CN1C(=O)/C(=C\c2cc(OC)c(OC)c(OC)c2)c2ccccc21` showed growth equal to 63.1

* * *

# Tested on: NCI-H522 lung
# test_protocol: NCI-60 one-dose screen, 48 h
# applied_conditions: 10 µM unless noted
About 83,000 compounds went through this panel and 20% of them were active in at least one assay; those are over-represented in the sample as a whole. Activity calls are given as the source filed them. How the source made its calls: active means growth percent below 10; inactive means the rest.
Hi! Could you answer with just one of these? label 1 for active, label 0 for inactive

Record excerpt, results attached:
# structure_notation, assay_system, assigned_label
records = [
    ("COc1ccc(Nc2nccc(Nc3ccc4[nH]ncc4c3)n2)cc1", "NCI-H522 lung", "label 0"),
    ("COc1ccc(S(=O)(=O)N(C)c2oc(-c3ccc(Cl)cc3)nc2C#N)cc1", "NCI-H522 lung", "label 0"),
]

Alright, here's another molecule for you.
Query :: Short answer needed: outcome of this test for `CC(C)(C)c1ccc(C(=O)Nc2sc3c(c2C#N)CCC(=O)C3)cc1` ?
Result :: label 1

* * *

# Tested on: SK-MEL-28 melanoma
# test_protocol: NCI-60 one-dose screen, 48 h (100 = growth as untreated, 0 = no growth, -100 = all killed)
# applied_conditions: 10 µM unless noted
Compounds without any hit were thinned out: in the full panel of roughly 83,000, 20% have a hit. Active and inactive are the calls of the source. How the source made its calls: active means growth percent below 10; inactive means the rest.
Catalogue of growth readings, one per entry.

# compound, assay_system, growth
records = [
    ("c1ccc2cc(Cn3cc[n+](Cc4ccc5ccccc5c4)c3)ccc2c1", "SK-MEL-28 melanoma", "20.3% (inactive)"),
    ("CN1CCN(c2ccc(Nc3ncc4[nH]c(=O)n(Cc5ccccc5N)c4n3)cc2)CC1", "SK-MEL-28 melanoma", "111% (inactive)"),
    ("COC(=O)[C@H]1Cc2c([nH]c3ccccc23)[C@H](c2ccc3c(c2)OCO3)N1", "SK-MEL-28 melanoma", "108% (inactive)"),
    ("Brc1ccc(-c2nn(-c3ccccc3)cc2-c2nn[nH]n2)s1", "SK-MEL-28 melanoma", "96.2% (inactive)"),
    ("CC(=O)CC(=O)c1ccccc1.[Cu+2]", "SK-MEL-28 melanoma", "105% (inactive)"),
    ("Cn1cc(-c2csc(-c3cn(CCO)c4ccc(F)cc34)n2)c2cccnc21", "SK-MEL-28 melanoma", "74.4% (inactive)"),
]

Next, consider the following compound.
Let me check: `COc1ccc(NC(=O)c2ccc(Cl)cc2Cl)cc1` , system SK-MEL-28 melanoma, measured growth is 105% (inactive)

* * *

# Test system: SK-MEL-5 melanoma
# test_protocol: NCI-60 one-dose screen, 48 h
# applied_conditions: 10 µM unless noted
About 83,000 compounds went through this panel and 20% of them were active in at least one assay; those are over-represented in the sample as a whole. Calls of active or inactive are those of the source. The calls were made as follows: active = growth percent below 10; inactive = the rest.
Assign a class; possible classes are t for active, f for inactive

Worked examples, 6 compounds total:
# compound, assay_system, assigned_label
data = [
    ("COc1ccc(-c2cc(-c3ccc(Nc4nc(Nc5ccc(Cl)cc5)nc(Nc5ccc(Cl)cc5)n4)cc3)no2)cc1", "SK-MEL-5 melanoma", "f"),
    ("Cc1ccc(OCCOCCOCCOCCOc2ccc(C)n(O)c2=S)c(=S)n1O", "SK-MEL-5 melanoma", "t"),
    ("O=C1C2C(c3cccs3)C=C(c3ccc(Cl)cc3)N2C(=S)N1c1ccccc1 (configuration not stated)", "SK-MEL-5 melanoma", "f"),
    ("Cc1ccc(NC(=O)c2ccc(Nc3ncnc4c3cnn4-c3cccc(F)c3)cc2)cc1", "SK-MEL-5 melanoma", "f"),
    ("N=C(N)c1ccc(-c2ccc(-c3ccccc3)s2)nc1", "SK-MEL-5 melanoma", "f"),
    ("C#Cc1c(I)n(C2OC(CO[Si](C)(C)C(C)(C)C)C3OC(C)(C)OC32)c(=O)[nH]c1=O (configuration not stated)", "SK-MEL-5 melanoma", "f"),
]

# evaluate next
Query :: What is the recorded call for this compound in the test? `O=C(Nc1ccccc1C(F)(F)F)C1=NCCCCN1`
Result :: f
